Assay target: Cytochrome P450 3A4 (Homo sapiens, UniProt P08684)
Sequence (P08684 whole entry): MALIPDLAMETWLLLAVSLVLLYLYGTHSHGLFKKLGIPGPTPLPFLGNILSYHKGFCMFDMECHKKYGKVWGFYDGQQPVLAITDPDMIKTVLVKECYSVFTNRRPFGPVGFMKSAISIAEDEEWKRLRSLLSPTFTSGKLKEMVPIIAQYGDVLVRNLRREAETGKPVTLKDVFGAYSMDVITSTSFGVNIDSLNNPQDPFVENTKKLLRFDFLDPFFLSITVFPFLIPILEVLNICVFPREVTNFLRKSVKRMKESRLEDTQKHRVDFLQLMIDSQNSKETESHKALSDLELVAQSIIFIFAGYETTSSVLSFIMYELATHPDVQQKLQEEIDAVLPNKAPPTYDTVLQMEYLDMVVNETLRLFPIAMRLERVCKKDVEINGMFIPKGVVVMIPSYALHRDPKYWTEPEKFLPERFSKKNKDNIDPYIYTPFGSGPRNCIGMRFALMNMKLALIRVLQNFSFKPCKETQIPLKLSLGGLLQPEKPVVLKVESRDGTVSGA
Observation type: IC50

Summary for this compound, C[C@H]1CO[C@@H]2Cn3cc(C(=O)NCc4ccc(F)nc4F)c(=O)c(O)c3C(=O)N12 : IC50 is > 10 µM

* * *

Assay explanation: Drug concentration in Sprague-Dawley rat at 1 mg/kg, iv after 8 hrs by LC-MS/MS analysis
Format: ADME, organism-based
Test context: in vivo, read-out: Drug uptake
Observation type: concentration at 8 h (ng/mL)
Give just the numeric value; ng/mL need not be written.

Summary for this compound, C[C@H]1CO[C@@H]2Cn3cc(C(=O)NCc4ccc(F)nc4F)c(=O)c(O)c3C(=O)N12 : concentration at 8 h is 8620
